# System: TF1 JAK2 V617F STAT5 reporter
# Experimental details: Cellular TF1 STAT5 assay (luciferase reporter), JAK2 V617F
# Type: cell-based
# Settings: TF1 JAK2 V617F, read-out: Cell PD TF1 V617F STAT5 (IC50)
pIC50: −log10 of the molar value.
Assign pIC50 to each entry below.

Challenge: Bench note: what pIC50 did `CNC(=O)c1nnc(NC(=O)C2CC2)cc1Nc1cccc(-c2cnn(C3CN(Cc4ncc(C)s4)C3)c2)c1OC` show?
Response given: 5.30 to 6.30

Challenge: Entry under review: `CNC(=O)c1nnc(NC(=O)C2CC2)cc1Nc1cccc(-c2ccc(C(=O)N(C)Cc3ccc(F)cc3)cc2)c1OC` . Reported pIC50?
Response given: 4.00 to 5.30

Challenge: Reported pIC50, compound `[2H]C([2H])([2H])NC(=O)c1nnc(NC(=O)C2CC2)cc1Nc1cccc(-c2cnn(C3CN(Cc4ccccn4)C3)c2)c1OC` : ____
Response given: 6.30 to 7.30

Challenge: Query: pIC50; subject: `CNC(=O)c1nnc(NC(=O)C2CC2)cc1Nc1cccc(-c2ccc(C(=O)N(C)Cc3cc(C#N)ccn3)nn2)c1OC`
Response given: 5.30 to 6.30

Challenge: Item under review: `CNC(=O)c1nnc(NC(=O)C2CC2)cc1Nc1cccc(-c2ccc(C(=O)N(C)Cc3cccnc3)nc2)c1OC` . Reported pIC50?
Response given: 6.30 to 7.30

Challenge: pIC50 lookup needed for `CNC(=O)c1nnc(NC(=O)C2CC2)cc1Nc1cccc(-c2ccc(C(=O)N(C)Cc3c(C)nn(C)c3C)nc2)c1OC` , thanks.
Response given: 6.30 to 7.30

Challenge: Tell me the measured pIC50 of `CNC(=O)c1nnc(NC(=O)C2CC2)cc1Nc1cccc(-c2cn(C3CN(Cc4cccc(C#N)n4)C3)nc2C)c1OC` , please.
Response given: 5.30 to 6.30
